test system: HepG2; assay: GSK_TCMDC: Percent inhibition of human HepG2 cell line. Test compounds present at 10uM.; type: functional
Mark yes for Inhibition under 20%, no if at or over.

| molecule | label |
| --- | --- |
| CN1CCCc2cc(NC(=O)C=Cc3ccc(-c4ccc(F)cc4F)o3)ccc2C1.O=C(O)C(F)(F)F | yes |
| CCOc1cccc(C(=O)Nc2ccc(-c3nc4ccccc4[nH]3)cc2)c1 | no |
| Cc1cc(C(=O)N(Cc2ccc(-c3ccc(CNCCc4ccc(S(C)(=O)=O)cc4)cn3)cc2)C(C)CN(C)C)ccc1[N+](=O)[O-].O=C(O)C(F)(F)F (configuration not stated) | yes |
| CCNc1cc(C(=O)N[C@@H](Cc2ccc(F)c(F)c2)[C@H](O)CNC2CCCCC2)cc(N2CCCCS2(=O)=O)c1.Cl | yes |
| O=C(O)C(F)(F)F.Oc1ccc(CCNc2nc(NCCCOc3ccccc3-c3ccc(F)cc3)nc(N3CCNCC3)n2)cc1 | no |
| COc1c(C2CCN(CCCCNC(=O)c3noc(-c4ccc(C#N)cc4)n3)CC2)ccc2c1CCCC2 | no |
| CC(C)NC(=O)c1cccc(-c2cccc(OCCN3CCSCC3c3ccccc3)c2)c1 (configuration not stated) | no |
| Cl.c1ccc(CC2=NCCN2)cc1 [TOLAZOLINE HYDROCHLORIDE] | yes |
| Fc1cccc(Cn2ncc3cc(Nc4ncnc5sc(C#Cc6ncc[nH]6)cc45)ccc32)c1 | no |
| CC(=O)c1sc(Cc2nc3ccccc3s2)nc1C | yes |
| Cc1ccc(CN2CCN(CC(O)COc3ccc4c(c3)CCC4)CC2)cc1 (configuration not stated) | yes |
| Cl.N=C(N)NN=Cc1cc([N+](=O)[O-])ccc1Sc1ccccc1CO | no |
